biological target: IDO1 (Homo sapiens, UniProt P14902); construct: HeLa cells were treated with a test compound in the presence of IFNγ, which induces IDO1 expression; host or cells: H1-HeLa cells, IDO1 induced with IFNγ; experiment: Cell-based (HeLa) assay for measurement of IDO1 inhibition (kynurenine levels in supernatant after IFNγ induction); settings: HeLa cells, IFNγ-induced IDO1, kynurenine in supernatant after 48 hour incubation; geometric mean of a minimum of four determinations
Sequence (P14902 whole entry): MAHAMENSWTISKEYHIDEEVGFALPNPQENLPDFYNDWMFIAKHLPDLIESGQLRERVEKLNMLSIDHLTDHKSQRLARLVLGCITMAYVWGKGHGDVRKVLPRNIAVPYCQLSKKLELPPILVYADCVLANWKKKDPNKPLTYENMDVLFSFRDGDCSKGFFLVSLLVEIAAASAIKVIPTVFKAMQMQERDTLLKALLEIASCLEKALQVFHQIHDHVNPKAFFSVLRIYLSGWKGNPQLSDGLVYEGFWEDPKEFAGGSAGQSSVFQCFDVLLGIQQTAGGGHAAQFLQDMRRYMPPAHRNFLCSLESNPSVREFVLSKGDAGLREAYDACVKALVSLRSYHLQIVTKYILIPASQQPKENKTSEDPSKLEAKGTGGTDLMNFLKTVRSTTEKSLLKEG
Task for the reader: assign each of the following compounds its reported pEC50.
Reminder that pEC50 is minus the log10 of a molar concentration.

Give its pEC50 value. Item: `CN(C)CCc1nc2c(/C(=N/O)Nc3ccc(F)c(Cl)c3)cc(F)c(F)c2[nH]1`
6.04

Give its pEC50 value. Item: `CN(C)Cc1nc2c(F)ccc(/C(=N/O)Nc3ccc(F)c(Cl)c3)c2[nH]1`
5.74

Give its pEC50 value. Item: `O=c1onc(-c2ccnc3nc(CO)[nH]c23)n1-c1ccc(F)c(Cl)c1`
5.35

Give its pEC50 value. Item: `O/N=C(\Nc1ccc(F)c(Cl)c1)c1ccnc2nc(CNCC(F)(F)F)[nH]c12`
5.33

Give its pEC50 value. Item: `CCN(CC)CCNc1nc2nccc(/C(=N/O)Nc3ccc(F)c(Cl)c3)c2[nH]1`
5.54

Give its pEC50 value. Item: `CN(C)Cc1nc2c(F)c(F)cc(/C(=N/O)Nc3cccc(Cl)c3)c2[nH]1`
5.92

Give its pEC50 value. Item: `O/N=C(\Nc1cc(F)cc(C(F)(F)F)c1)c1ccnc2nc[nH]c12`
5.68

----------
Task for the reader: assign each of the following compounds its reported EC50.
molecular target: IDO1 (Homo sapiens, UniProt P14902); construct: HeLa cells were treated with a test compound in the presence of IFNγ, which induces IDO1 expression; host or cells: H1-HeLa cells, IDO1 induced with IFNγ; test: Cell-based (HeLa) assay for measurement of IDO1 inhibition (kynurenine levels in supernatant after IFNγ induction); settings: HeLa cells, IFNγ-induced IDO1, kynurenine in supernatant, 48 hour incubation; geometric mean of a minimum of four determinations
Field: numeric (nM). Do not append units.

What is its EC50 for IDO1 (Homo sapiens, UniProt P14902)? Entry: `O/N=C(\Nc1ccc(F)c(Cl)c1)c1ccc(F)c2nc(NCCN3CCCC3)[nH]c12`
1260

What is its EC50 for IDO1 (Homo sapiens, UniProt P14902)? Entry: `CN(C)[C@H]1CCCC[C@@H]1Nc1nc2c(F)c(F)cc(/C(=N/O)Nc3ccc(F)c(Cl)c3)c2[nH]1`
3140

What is its EC50 for IDO1 (Homo sapiens, UniProt P14902)? Entry: `CN(C)CCCNc1nc2c(F)c(F)cc(/C(=N/O)Nc3cccc(Cl)c3)c2[nH]1`
580
